# MEASUREMENT DESCRIPTION: The drug is tested on Blautia hansenii strain: DSM20583 for biotransformation. The drug concentrations were measured before and after a 12-h incubation by liquid-chromatography-coupled mass spectrometry (LC–MS)
# CONDITION: 2 µM
PROPERTY: Bacterial Biotransformation

Below are worked cases with known answers.
compound="CN(C(=O)CN(CCO)CC(=O)N(C)C(C)(C)Cc1ccccc1)C(C)(C)Cc1ccccc1 [OXETHAZAINE]" measured_result="Compound NOT metabolized"
compound="Cc1nc2n(c(=O)c1CCN1CCC(c3noc4cc(F)ccc34)CC1)CCCC2 [RISPERIDONE]" measured_result="Compound metabolized"
compound="O=C(NCc1ccccc1)OCCO [BURAMATE]" measured_result="Compound NOT metabolized"
compound="OCCOCCN1CCN(C2=Nc3ccccc3Sc3ccccc32)CC1 [QUETIAPINE]" measured_result="Compound NOT metabolized"
compound="CC(=O)O[C@]1(C(C)=O)CC[C@H]2[C@@H]3C=C(C)C4=CC(=O)CC[C@]4(C)[C@H]3CC[C@@]21C [MEGESTROL ACETATE]" measured_result="Compound metabolized"

Bacterial Biotransformation in this record for COCCCC/C(=N\OCCN)c1ccc(C(F)(F)F)cc1.O=C(O)/C=C\C(=O)O [FLUVOXAMINE MALEATE] : Compound metabolized

Bacterial Biotransformation in this record for CC(C)c1nc(CN(C)C(=O)N[C@H](C(=O)N[C@@H](Cc2ccccc2)C[C@H](O)[C@H](Cc2ccccc2)NC(=O)OCc2cncs2)C(C)C)cs1 [RITONAVIR] : Compound metabolized

Bacterial Biotransformation in this record for `CCOC(=O)[C@H](CCc1ccccc1)N[C@@H](C)C(=O)N1Cc2ccccc2C[C@H]1C(=O)O` : Compound metabolized

Bacterial Biotransformation in this record for COc1ccccc1OCCNCC(O)COc1cccc2[nH]c3ccccc3c12 (centres undefined) [CARVEDILOL] : Compound metabolized

Bacterial Biotransformation in this record for C[C@@H](c1ncncc1F)[C@](O)(Cn1cncn1)c1ccc(F)cc1F [VORICONAZOLE] : Compound NOT metabolized

Bacterial Biotransformation in this record for CCN(CC)CCNC(=O)c1cc(S(C)(=O)=O)ccc1OC [TIAPRIDE] : Compound NOT metabolized
